Numbers sourced from patent US8791106B2.

Each record here notes measured inhibition at 0.03 µM.
# system: human CB2 (Homo sapiens, UniProt P34972)
# Construct: expressed in transfected cells; host or cells: CHO cells
# Sequence (P34972 whole entry): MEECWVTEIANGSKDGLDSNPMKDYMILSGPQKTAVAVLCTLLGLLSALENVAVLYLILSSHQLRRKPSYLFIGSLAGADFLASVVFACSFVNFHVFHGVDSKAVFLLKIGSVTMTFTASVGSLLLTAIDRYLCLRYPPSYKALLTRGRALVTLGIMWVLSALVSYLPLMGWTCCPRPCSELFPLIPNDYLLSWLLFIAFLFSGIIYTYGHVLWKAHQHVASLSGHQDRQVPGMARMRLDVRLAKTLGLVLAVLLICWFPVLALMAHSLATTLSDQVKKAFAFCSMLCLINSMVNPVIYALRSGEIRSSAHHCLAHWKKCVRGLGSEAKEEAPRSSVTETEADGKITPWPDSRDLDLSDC
# protocol_notes: Test on inhibition of human CB2-mediated cyclic AMP (cAMP) production
# Format: cell-based
# condition_set: 30 nM test substance; forskolin 0.5 μM; human CB2-expressing CHO cells; 30 minutes at room temperature; read-out: Inh(%): inhibition rate of cAMP increase
Kindly provide the numeric value in % only, without the unit symbol.

Below: 3 compounds and their reported inhibition at 0.03 µM.
CC1(C)CCCC(Nc2ncc(C(=O)N3CCS(=O)(=O)CC3)c3c2CCCC3)C1 (stereo not shown) : 77
O=C(c1ncc(Nc2cccc(Cl)c2)c2c1C1CCC2C1)N1CCS(=O)(=O)CC1 (stereo not shown) : 97
Cc1cccc(Nc2cnc(C(=O)N3CCS(=O)(=O)CC3)c3c2C2CCC3CC2)c1F : 119

Can you look up the measured inhibition at 0.03 µM of O=C(c1cnc(Nc2cccc(OC(F)(F)F)c2)c2c1CCCC2)N1CCOCC1 for me? 87

====

# system: human CB2 (Homo sapiens, UniProt P34972)
# Construct: expressed in transfected cells; host or cells: CHO cells
# protocol_notes: Test on inhibition of human CB2-mediated cyclic AMP (cAMP) production
# Assay type: cell-based
# condition_set: 30 nM test substance; forskolin 0.5 μM; human CB2-expressing CHO cells; 30 minutes at room temperature; read-out: Inh(%): inhibition rate of cAMP increase
assay_metric: inhibition at 0.03 µM
Just so you know, I need the unit written after the number.

Below: 3 molecules and their reported inhibition at 0.03 µM.
O=C(c1cnc(N[C@@H]2C[C@H]3CC[C@@H]2C3)c2c1CCCC2)N1CCOCC1 : 77%
O=C(c1cnc(Nc2cccc(OC(F)(F)F)c2)c2c1C1CCC2C1)N1CCS(=O)(=O)CC1 (stereo not shown) : 105%
O=C(c1cnc(Nc2cccc(C(F)(F)F)c2)c2c1C1CCC2CC1)N1CCS(=O)(=O)CC1 : 103%

Can you look up the measured inhibition at 0.03 µM of O=C(c1ncc(Nc2cccc(Cl)c2)c2c1C1CCC2CC1)N1CCS(=O)(=O)CC1 for me? 96%

====

# system: human CB2 (Homo sapiens, UniProt P34972)
# Construct: expressed in transfected cells; host or cells: CHO cells
# protocol_notes: Test on inhibition of human CB2-mediated cyclic AMP (cAMP) production
# Assay type: cell-based
# condition_set: 30 nM test substance; forskolin 0.5 μM; human CB2-expressing CHO cells; 30 minutes at room temperature; read-out: Inh(%): inhibition rate of cAMP increase
Each record here notes measured inhibition at 0.03 µM.
Kindly provide the numeric value in % only, without the unit symbol.

O=C(c1cnc(Nc2ccc(F)c(F)c2)c2c1C1CCC2CC1)N1CCS(=O)(=O)CC1 [Example 138] : 97

Can you look up the measured inhibition at 0.03 µM of Cc1ccc(Nc2cnc(C(=O)N3CCS(=O)(=O)CC3)c3c2C2CCC3CC2)cc1Cl [Example 167] for me? 115

Can you look up the measured inhibition at 0.03 µM of O=C(c1ncc(Nc2cccc(Cl)c2)c2c1CCCC2)N1CCS(=O)(=O)CC1 [Example 10] for me? 73

Can you look up the measured inhibition at 0.03 µM of O=C(c1cnc(Nc2ccc(F)c(C(F)(F)F)c2)c2c1C1CCC2C1)N1CCS(=O)(=O)CC1 (stereo not drawn) [Example 133-2] for me? 90

Can you look up the measured inhibition at 0.03 µM of O=C(c1ncc(Nc2cccc(OC(F)(F)F)c2)c2c1C1CCC2CC1)N1CCS(=O)(=O)CC1 [Example 125] for me? 100

Can you look up the measured inhibition at 0.03 µM of O=C(c1ncc(Nc2ccc(F)c(C(F)(F)F)c2)c2c1C1CCC2CC1)N1CCS(=O)(=O)CC1 [Example 129] for me? 95

Can you look up the measured inhibition at 0.03 µM of O=C(c1ncc(Nc2ccc(F)c(Cl)c2)c2c1C1CCC2C1)N1CCS(=O)(=O)CC1 (stereo not drawn) [Example 59] for me? 93

Can you look up the measured inhibition at 0.03 µM of O=C(c1cnc(Nc2cc(F)cc(Cl)c2)c2c1C1CCC2CC1)N1CCS(=O)(=O)CC1 [Example 179] for me? 100

Can you look up the measured inhibition at 0.03 µM of O=C(c1cnc(Nc2cccc(Cl)c2)c2c1CCCC2)N1CCS(=O)(=O)CC1 [Example 30] for me? 82

Can you look up the measured inhibition at 0.03 µM of O=C(c1cnc(Nc2ccc(F)c(Cl)c2)c2c1C1CCC2C1)N1CCS(=O)(=O)CC1 (stereo not drawn) [Example 119-2] for me? 91

Can you look up the measured inhibition at 0.03 µM of O=C(c1cnc(Nc2cccc(Cl)c2)c2c1C1CCC2C1)N1CCS(=O)(=O)CC1 (stereo not drawn) [Example 117-2] for me? 100

Can you look up the measured inhibition at 0.03 µM of O=C(c1cnc(Nc2cccc(Cl)c2)c2c1C1CCC2CC1)N1CCS(=O)(=O)CC1 [Example 101] for me? 99
